# assay_system: UniProt Q16539
# protocol_summary: Inhibition of TNF Production in Whole Blood
Exercise: state measured IC50 for each of the molecules provided.

>>> reported("COC(=O)CCc1ccc(SC2=NN3CNC(=O)C(c4c(Cl)cccc4Cl)=C3C=C2C)cc1")
"> 500 nM"
>>> reported("Cc1cc(F)ccc1-c1cccc(C(C(N)=O)c2c(Cl)cccc2Cl)n1 (configuration not stated)")
"> 500 nM"
>>> reported("Nc1ccc(Cl)c(-c2c(=O)ncn3nc(Sc4ccc(F)cc4)ccc23)c1Cl")
"> 500 nM"
>>> reported("O=C1NCN2N=C(Sc3ccccc3CO)C=CC2=C1c1c(Cl)cccc1Cl")
"< 250 nM"
>>> reported("Nc1ccc(C2=C3C=CC(Sc4ccc(F)cc4)=NN3CNC2=O)c(Cl)c1")
"> 500 nM"

Dear colleague, could you please provide IC50 for the molecules listed below?
1. Cc1ccc(SC2=NN3CNC(=O)C(c4c(Cl)cccc4Cl)=C3C=C2)c(C)c1
2. NC(=O)C(c1cccc(-c2ccccc2C=NO)n1)c1c(Cl)cccc1Cl (configuration not stated)
3. NC(=O)C(c1cccc(-c2ccccc2)n1)c1c(Cl)cccc1Cl (configuration not stated)
4. Nc1ccc(Cl)c(C2=C3C=CC(Sc4ccc(F)cc4)=NN3CNC2=O)c1Cl
5. NC(=O)N(c1cccc(-c2ccc(F)cc2)n1)c1c(F)cccc1F
6. COc1ccc(C2=C3C=CC(Sc4ccc(F)cc4)=NN3CNC2=O)c(Cl)c1OC
7. O=C1NCN2N=C(Sc3ccc(F)cc3Cl)C=CC2=C1c1cc2c(cc1Cl)OCO2

output:
1. > 500 nM
2. > 500 nM
3. > 500 nM
4. > 500 nM
5. > 500 nM
6. > 500 nM
7. > 500 nM

Dear colleague, could you please provide IC50 for the molecules listed below?
1. CC(=O)Nc1ccc(C2=C3C=CC(Sc4ccc(F)cc4)=NN3CNC2=O)c(Cl)c1
2. Cc1cc(F)ccc1-c1cccc(C(C(N)=O)c2c(Cl)cc(N)cc2Cl)n1 (configuration not stated)
3. O=C1NCN2N=C(Sc3ccc(F)cc3Cl)C=CC2=C1c1c(Cl)cccc1Cl
4. NC(=O)N(c1cccc(-c2ccccc2)n1)c1c(Cl)cccc1Cl
5. COc1ccc(C2=C3C=CC(Sc4ccc(F)cc4)=NN3CNC2=O)c(Cl)c1
6. Cc1cc(F)ccc1-c1cccc(N(C(N)=O)c2c(F)cccc2F)n1
7. COC(=O)c1ccccc1Sc1ccc2c(-c3c(Cl)cccc3Cl)c(=O)ncn2n1
8. O=C1NCN2N=C(Sc3ccccc3Br)C=CC2=C1c1c(Cl)cccc1Cl

output:
1. > 500 nM
2. > 500 nM
3. 250 to 500 nM
4. > 500 nM
5. > 500 nM
6. 250 to 500 nM
7. > 500 nM
8. > 500 nM

---

# assay_system: MAPK14 (human) (UniProt Q16539)
# Sequence (Q16539 whole entry, looked up): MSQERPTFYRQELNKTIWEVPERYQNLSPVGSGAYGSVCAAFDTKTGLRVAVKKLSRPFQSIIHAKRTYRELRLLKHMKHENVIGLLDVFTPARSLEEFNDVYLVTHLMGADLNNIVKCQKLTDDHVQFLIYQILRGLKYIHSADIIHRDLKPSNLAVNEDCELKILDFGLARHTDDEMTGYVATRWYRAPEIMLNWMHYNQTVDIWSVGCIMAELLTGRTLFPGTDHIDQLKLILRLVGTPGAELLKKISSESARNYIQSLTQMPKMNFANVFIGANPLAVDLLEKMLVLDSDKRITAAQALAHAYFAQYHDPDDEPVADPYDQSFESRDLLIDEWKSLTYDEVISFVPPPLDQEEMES
# protocol_summary: Inhibition of IL-6 Production in Whole Blood
pIC50: −log10 of the molar value.
outcome_measure: pIC50

Past entries and their recorded results:
>>> reported("Cc1ccccc1-c1cccc(C(C(N)=O)c2c(Cl)cccc2Cl)n1 (stereo unspecified)")
"< 6.30"
>>> reported("Cc1ccccc1-c1cccc(N(C(N)=O)c2c(F)cccc2F)n1")
"6.30 to 6.60"

Dear colleague, could you please provide pIC50 for the compounds listed below?
1. Cc1cccc(-c2cccc(C(C(N)=O)c3c(Cl)cccc3Cl)n2)c1 (stereo unspecified)
2. Cc1ccccc1-c1cccc(N(C(N)=O)c2c(Cl)cccc2Cl)n1
3. NC(=O)N(c1cccc(-c2ccccc2)n1)c1c(Cl)cccc1Cl
4. COc1ccc(C2=C3C=CC(Sc4ccc(F)cc4)=NN3CNC2=O)c(Cl)c1
5. Cc1cc(F)ccc1-c1cccc(N(C(N)=O)c2cc3c(cc2Cl)OCO3)n1

output:
< 6.30
< 6.30
< 6.30
< 6.30
< 6.30

Dear colleague, could you please provide pIC50 for the compounds listed below?
1. CNCc1ccccc1-c1cccc(C(C(N)=O)c2c(Cl)cccc2Cl)n1 (stereo unspecified)
2. N#Cc1ccccc1SC1=NN2CNC(=O)C(c3c(Cl)cccc3Cl)=C2C=C1
3. O=C(CCl)Nc1ccc(C2=C3C=CC(Sc4ccc(F)cc4)=NN3CNC2=O)c(Cl)c1

output:
< 6.30
< 6.30
< 6.30

Dear colleague, could you please provide pIC50 for the compounds listed below?
1. COc1ccc(C2=C3C=CC(Sc4ccc(F)cc4)=NN3CNC2=O)c(Cl)c1OC
2. NC(=O)C(c1cccc(-c2ccc(Cl)cc2Cl)n1)c1c(Cl)cccc1Cl (stereo unspecified)
3. O=C1NCN2N=C(Sc3ccc(F)cc3)C=CC2=C1c1cc2c(cc1Cl)OCO2
4. NC(=O)C(c1cccc(-c2ccccc2CN2CCNCC2)n1)c1c(Cl)cccc1Cl (stereo unspecified)
5. O=C1NCN2N=C(Sc3ccc(F)cc3)C=CC2=C1c1c(Cl)cccc1Cl

output:
1: < 6.30; 2: < 6.30; 3: 6.30 to 6.60; 4: < 6.30; 5: 6.30 to 6.60

---

# assay_system: MAPK14 (human) (UniProt Q16539)
# protocol_summary: Inhibition of MAPK14 Kinase Activity
outcome_measure: IC50

>>> reported("CCc1cc(Cl)c(C2=C3C=CC(Sc4ccc(F)cc4)=NN3CNC2=O)cc1O")
"< 100 nM"
>>> reported("COc1ccc(-c2c(=O)ncn3nc(Sc4ccc(F)cc4)ccc23)cc1OC")
"100 to 1000 nM"
>>> reported("O=C1NCN2N=C(Sc3ccc(F)cc3F)C=CC2=C1c1cc2c(cc1Cl)OCO2")
"< 100 nM"
>>> reported("Cc1cc(F)ccc1SC1=NN2CNC(=O)C(c3c(F)cccc3F)=C2C=C1")
"< 100 nM"
>>> reported("CN(C)C=Nc1ccc(-c2c(=O)ncn3nc(Sc4cc(F)ccc4Cl)ccc23)c(Cl)c1")
"100 to 1000 nM"

Dear colleague, could you please provide IC50 for the compounds listed below?
1. Nc1ccc(Cl)c(-c2c(=O)ncn3nc(Sc4ccc(F)cc4)ccc23)c1Cl
2. O=C(O)c1cc(F)ccc1Sc1ccc2c(-c3c(Cl)cccc3Cl)c(=O)ncn2n1

output:
1: 100 to 1000 nM; 2: > 1000 nM

---

# assay_system: UniProt Q16539
# protocol_summary: Inhibition of IL-1 Production in Whole Blood
Exercise: state measured IC50 for each of the compounds provided.

Past entries and their recorded results:
>>> reported("Cc1cc(F)ccc1-c1cccc(N(C(N)=O)c2cc3c(cc2Cl)OCO3)n1")
"> 0.5 µM"
>>> reported("Cc1ccc(SC2=NN3CNC(=O)C(c4c(Cl)cccc4Cl)=C3C=C2)c(C)c1")
"> 0.5 µM"
>>> reported("Cc1cc(F)ccc1-c1cccc(N(C(N)=O)c2c(F)cccc2F)n1")
"0.25 to 0.5 µM"
>>> reported("Nc1cc(F)ccc1SC1=NN2CNC(=O)C(c3c(Cl)cccc3Cl)=C2C=C1")
"0.25 to 0.5 µM"
>>> reported("Nc1ccc(Cl)c(C2=C3C=CC(Sc4ccc(F)cc4)=NN3CNC2=O)c1Cl")
"> 0.5 µM"
>>> reported("CCc1cc(Cl)c(C2=C3C=CC(Sc4ccc(F)cc4)=NN3CNC2=O)cc1O")
"> 0.5 µM"
>>> reported("Nc1ccccc1SC1=NN2CNC(=O)C(c3c(Cl)cccc3Cl)=C2C=C1")
"> 0.5 µM"
>>> reported("CN(C)C=Nc1ccc(C2=C3C=CC(Sc4ccc(F)cc4Cl)=NN3CNC2=O)c(Cl)c1")
"0.25 to 0.5 µM"
>>> reported("COC(=O)CCc1ccc(SC2=NN3CNC(=O)C(c4c(Cl)cccc4Cl)=C3C=C2C)cc1")
"> 0.5 µM"
>>> reported("NC(=O)C(c1cccc(-c2ccc(Cl)cc2Cl)n1)c1c(Cl)cccc1Cl (stereo not drawn)")
"> 0.5 µM"

Dear colleague, could you please provide IC50 for the compounds listed below?
1. Cc1ccccc1-c1cccc(C(C(N)=O)c2c(Cl)cccc2Cl)n1 (stereo not drawn)
2. Nc1ccc(C2=C3C=CC(Sc4ccc(F)cc4)=NN3CNC2=O)c(Cl)c1
3. Cc1cccc(-c2cccc(C(C(N)=O)c3c(Cl)cccc3Cl)n2)c1 (stereo not drawn)
4. Cc1cc(F)ccc1-c1cccc(C(C(N)=O)c2c(Cl)cccc2Cl)n1 (stereo not drawn)

output:
> 0.5 µM
> 0.5 µM
> 0.5 µM
> 0.5 µM

---

Exercise: state measured IC50 for each of the molecules provided.
# assay_system: MAPK14 (human) (UniProt Q16539)
# protocol_summary: Inhibition of IL-1 Production in LPS-Stimulated PBMCs
# cond: pbmc

>>> reported("O=c1ncn2nc(Sc3ccccc3)ccc2c1-c1c(F)cccc1F")
"> 500 nM"
>>> reported("COc1ccccc1-c1c(=O)ncn2nc(Sc3ccccc3)ccc12")
"> 500 nM"
>>> reported("CC(C)c1ccccc1Sc1ccc2c(-c3c(Cl)cccc3Cl)c(=O)ncn2n1")
"> 500 nM"
>>> reported("O=C1NCN2N=C(Sc3ccc(F)cc3F)C=CC2=C1c1cc2c(cc1Cl)OCO2")
"< 100 nM"
>>> reported("CNCc1ccccc1-c1cccc(C(C(N)=O)c2c(Cl)cccc2Cl)n1 (stereo not given)")
"> 500 nM"

Dear colleague, could you please provide IC50 for the molecules listed below?
1. O=c1ncn2nc(Sc3ccccc3)ccc2c1-c1ccc(Cl)c(Cl)c1
2. Cc1ccccc1-c1c(=O)ncn2nc(Sc3ccccc3)ccc12
3. Cc1c(Sc2ccccc2)nn2cnc(=O)c(-c3c(Cl)cccc3Cl)c2c1C
4. CCc1cc(Cl)c(C2=C3C=CC(Sc4ccc(F)cc4)=NN3CNC2=O)cc1O
5. NC(=O)C(c1cccc(-c2ccccc2CN2CCCC2)n1)c1c(Cl)cccc1Cl (stereo not given)

output:
> 500 nM
> 500 nM
> 500 nM
100 to 500 nM
100 to 500 nM
